- system tested: T1, Human PD-1 protein with histidine and avi tags (ACRO Biosystems, PD1-H82E4) (human, UniProt Q15116 25-167)
- T1 construct: Captured on streptavidin (SA) sensors in the BLI assay; not shown: histidine and avi tags
- T1 sequence (Q15116 25-167 limits assumed): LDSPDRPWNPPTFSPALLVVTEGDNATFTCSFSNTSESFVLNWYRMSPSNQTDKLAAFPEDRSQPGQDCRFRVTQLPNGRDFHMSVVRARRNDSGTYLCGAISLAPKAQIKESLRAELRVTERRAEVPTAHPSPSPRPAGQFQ
- assay text: BLI (Octet Red96e), PD-1 captured on SA sensor, 1:1 local fit
measurement kind: Kd (nM)
// units = nM; emit number, no label

PR005104 (VHH, Monovalent single-domain (VH) variant of PR002481 with Flag-6His tag) VHH: EVQLVETGGGLIQPGGSLRLSCAASGFNVSSHYMSWVRQAPGKGREWVSIIDISGSTYYADSVKGRFTISRDNSKNRLYLQMNSLRAEDTAMYYCARATAVAEKNGYNYPFNYWGQGTLVTVSS    3.08
PR005572 (antibody, human IgG1, V domains shown, no light chain; also called anti-PD1 PR002481Com_32 HCAb hIgG1) VH: EVQLVETGGGLIQPGGSLRLSCAASGFNVAFYYMSWVRQAPGKGREWVSIIDKGGSTYYADSVKGRFTISRDNSKNRLYLQMNSLRAEDTAMYYCARATEVREKQGYNYPFNYWGQGTLVTVSS    3.32
PR005149 (VHH, Monovalent single-domain (VH) variant of PR002481 with Flag-6His tag) VHH: EVQLVETGGGLIQPGGSLRLSCAASGFNVSSHYMSWVRQAPGKGREWVSIIDKAGSGYYADSVKGRFTISRDNSKNRLYLQMNSLRAEDTAMYYCARATEVREKQGYNYPFNYWGQGTLVTVSS    14

Dear colleague, please send me the reported Kd for PR005102 (VHH, Monovalent single-domain (VH) variant of PR002481 with Flag-6His tag) VHH: EVQLVETGGGLIQPGGSLRLSCAASGFNVSSHYMSWVRQAPGKGREWVSIIDRGGSTYYADSVKGRFTISRDNSKNRLYLQMNSLRAEDTAMYYCARATAVAEKNGYNYPFNYWGQGTLVTVSS when you can.
5.99

Dear colleague, please send me the reported Kd for PR005575 (antibody, human IgG1, V domains shown, no light chain; also called anti-PD1 PR002481Com_24 HCAb hIgG1) VH: EVQLVETGGGLIQPGGSLRLSCAASGFNVASHYMSWVRQAPGKGREWVSIIDKAGSGYYADSVKGRFTISRDNSKNRLYLQMNSLRAEDTAMYYCARATEVREKQGYNYPFNYWGQGTLVTVSS when you can.
6.46

Dear colleague, please send me the reported Kd for PR005146 (VHH, Monovalent single-domain (VH) variant of PR002481 with Flag-6His tag) VHH: EVQLVETGGGLIQPGGSLRLSCAASGFNVSFHYMSWVRQAPGKGREWVSIIDGAGSGYYAASVKGRFTISRDNSKNRLYLQMNSLRAEDTAMYYCARATMVREKQGYNYPFNYWGQGTLVTVSS when you can.
1020

Dear colleague, please send me the reported Kd for PR005097 (VHH, Monovalent single-domain (VH) variant of PR002481 with Flag-6His tag) VHH: EVQLVETGGGLIQPGGSLRLSCAASGFNVSSHYMSWVRQAPGKGREWVSIIDGGGSTYYADSVKGRFTISRDNSKNRLYLQMNSLRAEDTAMYYCARATAVREKNGYNYPFNYWGQGTLVTVSS when you can.
13.9

Dear colleague, please send me the reported Kd for PR002481 (antibody, human IgG1, V domains shown, Heavy-chain-only antibody (HCAb), human IgG1 Fc; two heavy chains, no light chain; also called R4004P556D1; anti-PD1 R4004P556D1 HCAb hG1) VH: EVQLVETGGGLIQPGGSLRLSCAASGFNVSSHYMSWVRQAPGKGREWVSIIDGGGSTYYADSVKGRFTISRDNSKNRLYLQMNSLRAEDTAMYYCARATAVAEKNGYNYPFNYWGQGTLVTVSS when you can.
77
